Please find below Ki data on 5-hydroxytryptamine receptor 1A (Homo sapiens) compiled from the literature.
measured-metric: Ki (µM)

// below: answered compounds
NC(=O)[C@@H]1Cc2ccccc2CN1C(=O)CCCCCCN1CCN(c2ccccc2-c2ccccc2)CC1
0.061
O=C1C(Cc2ccccc2N2CCNCC2)SCCN1c1ccc(Cl)c(Cl)c1 (stereo not given)
0.009

I: CC(COc1ccccc1-c1ccccc1)N1CCC(NS(=O)(=O)c2ccc(F)cc2)CC1 (stereo not given)
II: O=C1Nc2ccccc2C12CCN(CCN1CCN(c3ccc(Cl)c(Cl)c3)CC1)C2 (stereo not given)
Task item: Return label of the item with the larger Ki. Candidates: I , II . # respond with the chosen item's label
Reply: II
(II: 4.05 µM, I: 0.297 µM)

* * *

Molecular target: 5-hydroxytryptamine receptor 1A (Homo sapiens)
Sequence (P08908 whole entry): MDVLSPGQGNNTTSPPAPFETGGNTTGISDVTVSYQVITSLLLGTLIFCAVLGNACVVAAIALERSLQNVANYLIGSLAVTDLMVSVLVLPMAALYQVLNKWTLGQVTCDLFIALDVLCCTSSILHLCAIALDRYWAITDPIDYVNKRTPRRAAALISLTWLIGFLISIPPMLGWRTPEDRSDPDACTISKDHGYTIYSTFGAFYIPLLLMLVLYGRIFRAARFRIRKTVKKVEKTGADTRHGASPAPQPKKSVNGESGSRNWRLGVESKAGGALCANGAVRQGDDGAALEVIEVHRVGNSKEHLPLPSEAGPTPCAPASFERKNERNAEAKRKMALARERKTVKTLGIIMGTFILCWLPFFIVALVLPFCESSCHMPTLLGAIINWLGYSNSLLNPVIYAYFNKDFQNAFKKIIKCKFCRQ
Please find below Ki data on 5-hydroxytryptamine receptor 1A (Homo sapiens) compiled from the literature.
measured-metric: Ki (nM)

// below: answered compounds
COc1cccc(CCc2ccccc2OCc2ccccn2)c1
5000
O=C(NC1CCCC1)c1ccc(-c2ccc3c(c2)CCN(CCN2CCCC2)C3=O)cc1
8720

I: Cc1cc2c(OC[C@@H](O)CN3CC[C@@H](c4cc5cccc(F)c5s4)C[C@H]3C)cccc2[nH]1
II: O=C1c2ccccc2S(=O)(=O)N1CCCCCCN1CCN(c2ccccc2Cl)CC1
III: CNS(=O)(=O)CCc1ccc2[nH]cc(C3CCN(C)CC3)c2c1
Task item: // smallest Ki at index 0, largest at the end The response must list the labels following the requested ordering.
Reply: I, II, III

1: CCC(Oc1cccc(F)c1F)c1nc(N)nc(N2CCN(C)CC2)n1 (stereo not given)
2: COc1ccc(-c2ccccc2N2CCN(CCCCCC(=O)NCc3ccc(OCCCN4CCOCC4)cc3)CC2)cc1
Task item: Return label of the item with the larger Ki. Candidates: 1 , 2 . # respond with the chosen item's label
Reply: 1
(1: 2650 nM, 2: 105 nM)

* * *

Biological target: 5-hydroxytryptamine receptor 1A (Homo sapiens, UniProt P08908)
Sequence (P08908 whole entry): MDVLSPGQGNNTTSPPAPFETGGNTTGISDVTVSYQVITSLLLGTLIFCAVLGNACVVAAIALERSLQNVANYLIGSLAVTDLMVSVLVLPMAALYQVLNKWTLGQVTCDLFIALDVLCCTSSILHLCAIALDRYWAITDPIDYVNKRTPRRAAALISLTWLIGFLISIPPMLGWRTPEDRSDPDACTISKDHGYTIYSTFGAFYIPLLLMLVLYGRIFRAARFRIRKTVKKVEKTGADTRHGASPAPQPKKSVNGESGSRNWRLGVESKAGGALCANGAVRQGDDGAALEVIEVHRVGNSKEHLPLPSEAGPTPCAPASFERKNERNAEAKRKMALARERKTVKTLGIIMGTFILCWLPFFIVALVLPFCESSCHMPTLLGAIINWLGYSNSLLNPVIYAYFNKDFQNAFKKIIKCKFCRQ
Please find below Ki data on 5-hydroxytryptamine receptor 1A (Homo sapiens, UniProt P08908) compiled from the literature.
measured-metric: Ki (µM)

// below: answered compounds
Fc1ccc(N2CCN(CCCc3c[nH]c4ccc(F)cc34)CC2)c(-c2cn[nH]c2)c1
0.0063
COc1cccc(N2CCN(CCCn3c(=O)oc4ccccc4c3=O)CC2)c1
0.046
COc1ccccc1N1CCN(CCCc2cn(CCCN3CCc4cc(O)c(O)cc4C(c4ccccc4C)C3)nn2)CC1 (racemic)
0.105
O=C1CC2(CCCCC2)CC(=O)N1CCN1CCN(c2ccccc2Cl)CC1
0.02
COc1cc(OC)c(C2NCCc3c2[nH]c2ccc(F)cc32)cc1OC (stereo not given)
1.37
CC(=O)c1c(C)cc2oc(=O)cc(C)c2c1OCCCCN1CCN(c2ccc([N+](=O)[O-])cc2)CC1
0.033
CCN(CC)Cc1ccc(Cl)c(-c2ccccc2OC)c1
1.7

P: COc1ccc(F)cc1OC(C)c1nc(N)nc(N2CCN(C)CC2)n1 (stereo not given)
Q: CC(=O)c1c(C)cc2oc(=O)cc(C)c2c1OCCCN1CCN(c2ccccc2C#N)CC1
Task item: Return label of the item with the larger Ki. Candidates: P , Q . # respond with the chosen item's label
Reply: P
(P: 6.17 µM, Q: 0.0003 µM)

* * *

Target: 5-hydroxytryptamine receptor 1A (Homo sapiens, UniProt P08908)
Sequence (P08908 whole entry): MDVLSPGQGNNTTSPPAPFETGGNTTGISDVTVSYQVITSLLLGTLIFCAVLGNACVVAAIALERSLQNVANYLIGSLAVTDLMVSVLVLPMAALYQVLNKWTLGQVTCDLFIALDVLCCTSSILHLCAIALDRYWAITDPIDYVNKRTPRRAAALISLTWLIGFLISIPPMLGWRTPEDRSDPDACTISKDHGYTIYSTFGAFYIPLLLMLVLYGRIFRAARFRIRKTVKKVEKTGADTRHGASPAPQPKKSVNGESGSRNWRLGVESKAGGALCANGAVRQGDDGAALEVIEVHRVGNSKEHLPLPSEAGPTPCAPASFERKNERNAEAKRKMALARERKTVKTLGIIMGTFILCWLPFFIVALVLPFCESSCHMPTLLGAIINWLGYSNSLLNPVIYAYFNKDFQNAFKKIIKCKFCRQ
pKi: −log10 of the molar value.
Please find below pKi data on 5-hydroxytryptamine receptor 1A (Homo sapiens, UniProt P08908) compiled from the literature.
measured-metric: pKi

// below: answered compounds
O=C1CCc2ccc(OCCCCN3CCN(c4cccc5c4OCCC5)CC3)nc2N1
8.96
O=S(=O)(c1cccc2ncccc12)N1CCC(CCN2CCN(c3ccccc3)CC2)CC1
6.13
COc1ccc2cccc(N3CCN(CCCn4ncc(=O)n(C)c4=O)CC3)c2c1
6.76
COc1ccc2nc(NCCCCCN3CCN(c4ccccc4OC)CC3)ccc2c1
8.59
Cn1c(=O)cnn(CCCCN2CCN(c3ccccc3)CC2)c1=O
8.60
COc1ccccc1N1CCN(CC(O)CN2C(=O)NC(C)(c3cccc4ccccc34)C2=O)CC1 (stereo not given)
6.49

1: CN1CC(CNCCc2c[nH]c3ccc(F)cc23)Oc2cc(Cl)ccc21 (stereo not given)
2: CCCNCc1ccc(Cl)c(-c2ccccc2OC)c1
3: O=C1NCCc2cc(F)c3c(c21)CC(NCCCc1c[nH]c2ccc(F)cc12)CO3 (racemic)
Task item: Arrange the 3 compounds from largest to smallest pKi. The response must list the labels following the requested ordering.
Reply: 3, 1, 2
(3: 8.22, 1: 7.12, 2: 6.38)

* * *

Target chain: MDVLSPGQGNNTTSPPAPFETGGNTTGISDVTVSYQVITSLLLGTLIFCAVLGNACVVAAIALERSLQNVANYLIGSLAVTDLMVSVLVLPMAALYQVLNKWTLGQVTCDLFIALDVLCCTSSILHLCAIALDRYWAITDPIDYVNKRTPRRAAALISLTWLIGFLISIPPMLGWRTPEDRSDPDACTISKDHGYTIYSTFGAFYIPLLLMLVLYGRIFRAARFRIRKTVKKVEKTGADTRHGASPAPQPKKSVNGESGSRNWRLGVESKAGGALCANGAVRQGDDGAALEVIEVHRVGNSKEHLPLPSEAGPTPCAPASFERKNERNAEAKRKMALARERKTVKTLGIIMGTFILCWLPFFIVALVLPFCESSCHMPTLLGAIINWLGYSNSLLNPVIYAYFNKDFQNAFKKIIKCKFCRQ
Please find below Ki data on the protein given by its sequence compiled from the literature.
measured-metric: Ki (nM)

// below: answered compounds
CN(C)CCSc1ccnc(-c2ccccc2)c1
1200
CC(C)C(=O)NC1CCc2cc(CCN3CCN(c4nsc5ccccc45)CC3)ccc21 (stereo not given)
1
O=S(=O)(c1ccccc1)C1(CCCN2CCC3CCCCC3C2)CCC1 (racemic)
210

P: COc1ccccc1N1CCN(CCCCNC(=O)[C@H]2CCCN2C(=O)C23CC4CC(CC(C4)C2)C3)CC1
Q: CC(=O)Nc1ncc2[nH]cc(C3CCN(C)CC3)c2n1
R: COCOc1ccc(CNC(=O)CCCCCN2CCN(c3ccccc3-c3ccccc3)CC2)cc1
S: COc1ccccc1N1CCN(CCCCNC(=O)c2ccc(-c3ccccn3)cc2)CC1
Task item: Arrange the 4 compounds from largest to smallest Ki. The response must list the labels following the requested ordering.
Reply: Q, R, P, S
(Q: 780 nM, R: 86 nM, P: 25 nM, S: 6.71 nM)

I: CN1CCC(c2c[nH]c3ccc(NC(=O)c4ccoc4)nc23)CC1
II: O=C(NCCCCN1CCN(c2cccc3ccccc23)CC1)c1ccccc1
Task item: Lab note: check whether I or II has the lower measured Ki. # respond with the chosen item's label
Reply: II
